Recorded values, source paper PMC10303271.

# tested on: 5-HT1D (Homo sapiens)
# Construct: purchased NIMH Psychoactive Drug Screening Program (PDSP)
# Sequence (P28221 whole entry): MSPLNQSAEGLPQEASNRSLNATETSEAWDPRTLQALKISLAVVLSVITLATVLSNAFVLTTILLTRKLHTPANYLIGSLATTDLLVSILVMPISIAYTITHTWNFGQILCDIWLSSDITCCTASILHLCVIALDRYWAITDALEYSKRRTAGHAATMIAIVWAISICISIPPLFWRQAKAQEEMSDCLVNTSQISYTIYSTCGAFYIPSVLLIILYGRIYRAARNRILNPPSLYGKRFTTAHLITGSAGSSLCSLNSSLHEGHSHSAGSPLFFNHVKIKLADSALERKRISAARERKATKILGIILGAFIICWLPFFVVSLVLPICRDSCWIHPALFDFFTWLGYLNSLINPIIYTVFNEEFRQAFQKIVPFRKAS
# method notes: PDSP primary binding 5-HT1D
# study conditions: 1.5 h; primary binding, 10,000 nM; last figure of the line = mean of the 4 before it; read-out: 5-HT1D, PDSP raw data, mean
# Experimental: To determine if any off-target receptor-binding effects are present, all the novel ligands were sent to the National Institute of Mental Health (NIMH), Psychoactive Drug Screening Program (PDSP). […] The hERG-binding was also determined. […] The binding of a ligand to a receptor, ion channel, or transporter was determined in the […] of 10 µM of the appropriate reference compound. […] Radioactivity was then counted on a Microbeta counter. […]
readout type: inhibition at 10 µM (%)
Give bare numbers, in %.

Record excerpt, results attached:
CCc1noc(-c2ncn3c2[C@@H](C)N=C(c2ccccc2F)c2cc(-c4ccccc4)ccc2-3)n1 on 5-HT1D (Homo sapiens) gives inhibition at 10 µM = 6.66

C#Cc1ccc2c(c1)C(c1ccccc1F)=N[C@H](C)c1c(C(=S)N(C)C)ncn1-2 on 5-HT1D (Homo sapiens) gives inhibition at 10 µM = -3.41

CCc1noc(-c2ncn3c2CN=C(c2ccccc2F)c2cc(C4CC4)ccc2-3)n1 on 5-HT1D (Homo sapiens) gives inhibition at 10 µM = 67.4

New cases:
CC(C)c1noc(-c2ncn3c2[C@@H](C)N=C(c2ccccc2F)c2cc(Cl)ccc2-3)n1 on 5-HT1D (Homo sapiens) gives inhibition at 10 µM = 9.73

====

# tested on: 5-HT1A (Homo sapiens)
# Construct: purchased NIMH Psychoactive Drug Screening Program (PDSP)
# Sequence (P08908 whole entry): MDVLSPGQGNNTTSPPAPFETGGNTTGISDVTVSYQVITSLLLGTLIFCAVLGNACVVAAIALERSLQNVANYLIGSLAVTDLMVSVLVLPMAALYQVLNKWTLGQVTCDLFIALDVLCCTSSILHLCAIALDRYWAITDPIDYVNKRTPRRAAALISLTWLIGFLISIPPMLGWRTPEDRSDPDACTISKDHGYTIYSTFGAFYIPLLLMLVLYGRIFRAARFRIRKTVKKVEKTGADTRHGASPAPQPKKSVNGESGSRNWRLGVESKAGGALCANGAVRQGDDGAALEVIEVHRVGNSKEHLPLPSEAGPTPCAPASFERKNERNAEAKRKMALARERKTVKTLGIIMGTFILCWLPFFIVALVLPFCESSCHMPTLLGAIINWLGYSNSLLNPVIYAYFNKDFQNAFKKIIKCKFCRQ
# method notes: PDSP primary binding 5-HT1A
# study conditions: 1.5 h; primary binding, 10,000 nM; last figure of the line = mean of the 4 before it; read-out: 5-HT1A, PDSP raw data, mean
Please go through the items and note down their inhibition at 10 µM.
Numbers only, in %.

Record CCc1noc(-c2ncn3c2[C@@H](C)N=C(c2ccccc2F)c2cc(Cl)ccc2-3)n1 . Reported inhibition at 10 µM: 3

Hi there! I need inhibition at 10 µM for each item below, if you can.
1. CC(C)c1noc(-c2ncn3c2[C@@H](C)N=C(c2ccccc2F)c2cc(Cl)ccc2-3)n1
2. C#Cc1ccc2c(c1)C(c1ccccn1)=N[C@@H](C)c1c(C(=O)NC)ncn1-2
3. CCc1noc(-c2ncn3c2[C@@H](C)N=C(c2ccccc2F)c2cc(-c4ccccc4)ccc2-3)n1
4. C[C@H]1N=C(c2ccccc2F)c2cc(Cl)ccc2-n2cnc(-c3nc(C4CC4)no3)c21
5. CCc1noc(-c2ncn3c2[C@@H](C)N=C(c2ccccc2F)c2cc(C4CC4)ccc2-3)n1

-6
2.23
28.9
-1.57
17.8

Hi there! I need inhibition at 10 µM for each item below, if you can.
1. C#Cc1ccc2c(c1)C(c1ccccc1Cl)=N[C@H](C)c1c(C(=O)N(C)CC)ncn1-2
2. CCc1noc(-c2ncn3c2CN=C(c2ccccc2F)c2cc(C4CC4)ccc2-3)n1

-2.7
36.1

====

Please go through the items and note down their inhibition at 10 µM.
# tested on: NTS1 (Homo sapiens, UniProt P30989)
# Construct: purchased NIMH Psychoactive Drug Screening Program (PDSP)
# Sequence (P30989 whole entry): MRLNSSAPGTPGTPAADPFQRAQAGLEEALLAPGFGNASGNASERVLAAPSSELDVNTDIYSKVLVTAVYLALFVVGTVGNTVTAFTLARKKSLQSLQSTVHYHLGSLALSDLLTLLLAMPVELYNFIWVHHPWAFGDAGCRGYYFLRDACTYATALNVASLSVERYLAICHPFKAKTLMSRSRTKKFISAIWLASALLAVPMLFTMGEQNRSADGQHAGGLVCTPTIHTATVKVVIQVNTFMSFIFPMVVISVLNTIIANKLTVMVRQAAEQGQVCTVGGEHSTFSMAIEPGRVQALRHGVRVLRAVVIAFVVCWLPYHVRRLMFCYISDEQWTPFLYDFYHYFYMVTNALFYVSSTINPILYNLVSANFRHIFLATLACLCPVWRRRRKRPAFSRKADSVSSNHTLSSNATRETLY
# method notes: PDSP primary binding NTS1
# study conditions: primary binding, 10,000 nM; last figure of the line = mean of the 4 before it; read-out: NTS1, PDSP raw data, mean
Answers are plain numbers, in %.

Record C[C@H]1N=C(c2ccccc2F)c2cc(-c3ccccc3)ccc2-n2cnc(C(=O)N(C)C)c21 . Reported inhibition at 10 µM: -16.7

Record C#Cc1ccc2c(c1)C(c1ccccn1)=N[C@@H](C)c1c(C(=O)NC)ncn1-2 . Reported inhibition at 10 µM: -5.89

Record C#Cc1ccc2c(c1)C(c1ccccc1F)=N[C@H](C)c1c(C(=S)N(C)C)ncn1-2 . Reported inhibition at 10 µM: -16.7

Record CCc1noc(-c2ncn3c2[C@@H](C)N=C(c2ccccc2F)c2cc(Cl)ccc2-3)n1 . Reported inhibition at 10 µM: -16.9

Record C[C@H]1N=C(c2ccccc2F)c2cc(Cl)ccc2-n2cnc(-c3nc(C4CC4)no3)c21 . Reported inhibition at 10 µM: -13.2

Record CCc1noc(-c2ncn3c2CN=C(c2ccccc2F)c2cc(C4CC4)ccc2-3)n1 . Reported inhibition at 10 µM: -62.2

Record CCc1noc(-c2ncn3c2[C@@H](C)N=C(c2ccccc2F)c2cc(-c4ccccc4)ccc2-3)n1 . Reported inhibition at 10 µM: -32.6

Record CC(C)c1noc(-c2ncn3c2[C@@H](C)N=C(c2ccccc2F)c2cc(Cl)ccc2-3)n1 . Reported inhibition at 10 µM: -16.3

Record C#Cc1ccc2c(c1)C(c1ccccc1Cl)=N[C@H](C)c1c(C(=O)NC)ncn1-2 . Reported inhibition at 10 µM: -25.2

Record C#Cc1ccc2c(c1)C(c1ccccc1Cl)=N[C@H](C)c1c(C(=O)N(C)CC)ncn1-2 . Reported inhibition at 10 µM: -19.5

Hi there! I need inhibition at 10 µM for each item below, if you can.
1. C#Cc1ccc2c(c1)C(c1ccccn1)=N[C@@H](C)c1c(C(=O)N(C)C)ncn1-2
2. CCc1noc(-c2ncn3c2[C@@H](C)N=C(c2ccccc2F)c2cc(C4CC4)ccc2-3)n1

1: 0.28; 2: -29.8
